Values were extracted from paper PMC10786891.

So I've got a bunch of binders here, and I need their Kd values.
# target_or_system: T1, EsCas13d, nuclease-dead (Eubacterium siraeum, UniProt B0MS50, R295A;H300A;R849A;H854A)
# T1 sequence: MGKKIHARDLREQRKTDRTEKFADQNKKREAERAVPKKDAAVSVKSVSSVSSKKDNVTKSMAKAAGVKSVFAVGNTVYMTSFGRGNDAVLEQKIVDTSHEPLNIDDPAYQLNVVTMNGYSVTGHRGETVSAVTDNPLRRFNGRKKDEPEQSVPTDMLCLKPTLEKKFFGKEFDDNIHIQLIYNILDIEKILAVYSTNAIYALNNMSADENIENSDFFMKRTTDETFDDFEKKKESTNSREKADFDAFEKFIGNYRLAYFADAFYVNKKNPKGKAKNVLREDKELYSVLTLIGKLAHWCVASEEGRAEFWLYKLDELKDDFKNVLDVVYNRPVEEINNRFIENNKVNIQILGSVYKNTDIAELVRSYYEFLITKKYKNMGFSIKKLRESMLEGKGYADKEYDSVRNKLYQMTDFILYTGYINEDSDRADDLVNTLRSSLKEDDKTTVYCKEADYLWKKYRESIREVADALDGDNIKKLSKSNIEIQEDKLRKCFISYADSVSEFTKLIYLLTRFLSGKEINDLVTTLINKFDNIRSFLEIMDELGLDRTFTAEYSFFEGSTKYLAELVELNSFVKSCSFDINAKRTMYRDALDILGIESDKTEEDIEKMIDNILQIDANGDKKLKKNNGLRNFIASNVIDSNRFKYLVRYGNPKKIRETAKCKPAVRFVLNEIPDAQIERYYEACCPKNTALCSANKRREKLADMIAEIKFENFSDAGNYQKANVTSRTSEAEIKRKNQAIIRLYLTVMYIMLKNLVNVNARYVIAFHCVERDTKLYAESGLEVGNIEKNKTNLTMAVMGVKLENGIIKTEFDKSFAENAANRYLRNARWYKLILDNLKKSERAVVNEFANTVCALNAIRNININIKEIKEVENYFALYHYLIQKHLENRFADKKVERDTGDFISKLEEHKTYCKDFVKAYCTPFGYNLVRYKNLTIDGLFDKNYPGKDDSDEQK
# assay_protocol: crRNA (strand 1, pre-loaded); Mg2+; 40 mM Tris-HCl pH 7.5, 150 mM NaCl, 6 mM MgCl2, 1 mM DTT, 0.1% Tween-20, 0.2 mg/ml BSA; 25 C; 10 min per concentration, then washed
# assay_conditions: tags: His6-TwinStrep-SUMO cleaved; N-terminal SNAP kept (SNAP-Surface 488); label: 3' end held by stalled T7 RNA polymerase
Report as a plain number; the unit nM is understood.

Input line: Determine its reported Kd: target 2 MT 5'PFS UAC 3'PFS CCA (mixed) RNA 1: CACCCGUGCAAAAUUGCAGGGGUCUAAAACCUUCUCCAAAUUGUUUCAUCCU RNA 2: GGGAAUGGAUCCACAUCUACGAAUUCUACAGGAUGAAACAAUUUGGAGAAGCCAAGAUCGGAAGAGCACACGU
Output line: 17

Input line: Determine its reported Kd: target 1 insU 3' of 21,insU 3' of 14 (mixed) RNA 1: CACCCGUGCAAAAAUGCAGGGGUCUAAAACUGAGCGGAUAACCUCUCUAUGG RNA 2: GGGAAUGGAUCCACAUCUACGAAUUCGUACCUAUAGAGAUGGUUAUCCGCUCACCGAGAUCGGAAGAGCACACGU
Output line: 45

Input line: Determine its reported Kd: target 1 insG 3' of 9,insG 3' of 9 (mixed) RNA 1: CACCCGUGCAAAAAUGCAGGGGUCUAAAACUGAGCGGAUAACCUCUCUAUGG RNA 2: GGGAAUGGAUCCACAUCUACGAAUUCGUACCAUAGAGAGGUUAGGUCCGCUCACCGAGAUCGGAAGAGCACACGU
Output line: 16.2

Input line: Determine its reported Kd: target 2 MT 5'PFS AGG 3'PFS AAC (mixed) RNA 1: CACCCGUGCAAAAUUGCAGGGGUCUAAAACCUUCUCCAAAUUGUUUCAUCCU RNA 2: GGGAAUGGAUCCACAUCUACGAAUUCAGGAGGAUGAAACAAUUUGGAGAAGAACAGAUCGGAAGAGCACACGU
Output line: 8.5
